# credit: ChEMBL document CHEMBL3102773

system under test: 5-hydroxytryptamine receptor 2B (Homo sapiens)
Sequence (P41595 whole entry): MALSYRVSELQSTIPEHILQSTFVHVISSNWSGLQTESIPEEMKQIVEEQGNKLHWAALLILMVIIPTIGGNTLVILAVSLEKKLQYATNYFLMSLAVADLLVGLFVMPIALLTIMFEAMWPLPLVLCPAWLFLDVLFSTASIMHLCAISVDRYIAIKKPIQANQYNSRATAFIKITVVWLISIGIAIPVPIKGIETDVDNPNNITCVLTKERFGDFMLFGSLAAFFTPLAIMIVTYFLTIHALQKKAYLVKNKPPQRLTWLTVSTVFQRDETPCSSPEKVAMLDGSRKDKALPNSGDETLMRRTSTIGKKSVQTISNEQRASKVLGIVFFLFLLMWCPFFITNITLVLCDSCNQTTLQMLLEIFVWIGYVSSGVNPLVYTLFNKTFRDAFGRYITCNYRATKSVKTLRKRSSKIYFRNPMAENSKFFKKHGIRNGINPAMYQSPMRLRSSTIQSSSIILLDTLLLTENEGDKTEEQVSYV
reported metric: pKi
// field semantics: pKi = negative decimal log of concentration (mol/L)

Enquiry: Quick check: pKi on 5-hydroxytryptamine receptor 2B (Homo sapiens), item CN1CCc2c(c3cccc4c3n2CCc2ccccc2-4)C1 ?
Return: 6.98

---

system under test: Sigma non-opioid intracellular receptor 1 (Homo sapiens)
Sequence (Q99720 whole entry): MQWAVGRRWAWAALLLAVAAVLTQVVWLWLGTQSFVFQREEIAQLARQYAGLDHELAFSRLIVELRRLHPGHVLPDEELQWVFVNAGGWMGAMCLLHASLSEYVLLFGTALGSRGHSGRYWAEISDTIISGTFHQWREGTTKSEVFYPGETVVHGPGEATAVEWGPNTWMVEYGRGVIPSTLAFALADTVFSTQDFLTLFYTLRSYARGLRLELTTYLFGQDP
assay protocol: Displacement of [3H](+)Pentazocine from sigma 1 receptor (unknown origin)
settings: read-out: Ki
reported metric: Ki (µM)
Numeric only. Scale: µM

Enquiry: Item under review: CN1CCc2c(c3cccc4c3n2CCc2ccccc2-4)C1 . Reported Ki?
Return: 0.22

---

system under test: Beta-2 adrenergic receptor (Homo sapiens, UniProt P07550)
Sequence (P07550 whole entry): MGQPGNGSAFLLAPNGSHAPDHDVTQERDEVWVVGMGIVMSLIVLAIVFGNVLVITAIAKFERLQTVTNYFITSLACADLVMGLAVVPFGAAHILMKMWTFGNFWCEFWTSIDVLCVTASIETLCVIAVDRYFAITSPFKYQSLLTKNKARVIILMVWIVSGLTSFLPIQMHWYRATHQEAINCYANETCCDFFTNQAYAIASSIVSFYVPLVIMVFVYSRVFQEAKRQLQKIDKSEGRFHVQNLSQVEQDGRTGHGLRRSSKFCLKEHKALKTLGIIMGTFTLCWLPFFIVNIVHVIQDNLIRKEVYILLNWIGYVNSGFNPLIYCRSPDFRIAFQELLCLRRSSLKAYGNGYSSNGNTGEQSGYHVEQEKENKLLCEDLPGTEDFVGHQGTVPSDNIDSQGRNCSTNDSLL
pKi: −log10 of the molar value.
reported metric: pKi

Enquiry: Quick check: pKi on Beta-2 adrenergic receptor (Homo sapiens, UniProt P07550), item CN1CCc2c(c3cccc4c3n2CCc2ccccc2-4)C1 ?
Return: < 5.00

---

system under test: D(1B) dopamine receptor (Homo sapiens)
Sequence (P21918 whole entry): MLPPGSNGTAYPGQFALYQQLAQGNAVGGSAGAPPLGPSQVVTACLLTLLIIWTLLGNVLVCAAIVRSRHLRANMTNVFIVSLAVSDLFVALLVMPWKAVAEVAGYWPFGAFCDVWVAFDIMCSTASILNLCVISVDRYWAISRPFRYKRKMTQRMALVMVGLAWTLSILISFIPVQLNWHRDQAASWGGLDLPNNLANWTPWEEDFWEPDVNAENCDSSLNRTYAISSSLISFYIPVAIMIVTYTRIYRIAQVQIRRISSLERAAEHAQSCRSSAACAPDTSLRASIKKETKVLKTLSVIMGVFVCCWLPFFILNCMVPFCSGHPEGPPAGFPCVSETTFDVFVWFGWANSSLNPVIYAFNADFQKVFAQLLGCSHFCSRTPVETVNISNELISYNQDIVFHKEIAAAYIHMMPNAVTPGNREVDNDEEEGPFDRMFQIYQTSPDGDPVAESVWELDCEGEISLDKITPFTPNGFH
pKi: −log10 of the molar value.
reported metric: pKi

Enquiry: Quick check: pKi on D(1B) dopamine receptor (Homo sapiens), item CN1CCc2c(c3cccc4c3n2CCc2ccccc2-4)C1 ?
Return: < 5.00

---

system under test: Alpha-2B adrenergic receptor (Homo sapiens, UniProt P18089)
Sequence (P18089 whole entry): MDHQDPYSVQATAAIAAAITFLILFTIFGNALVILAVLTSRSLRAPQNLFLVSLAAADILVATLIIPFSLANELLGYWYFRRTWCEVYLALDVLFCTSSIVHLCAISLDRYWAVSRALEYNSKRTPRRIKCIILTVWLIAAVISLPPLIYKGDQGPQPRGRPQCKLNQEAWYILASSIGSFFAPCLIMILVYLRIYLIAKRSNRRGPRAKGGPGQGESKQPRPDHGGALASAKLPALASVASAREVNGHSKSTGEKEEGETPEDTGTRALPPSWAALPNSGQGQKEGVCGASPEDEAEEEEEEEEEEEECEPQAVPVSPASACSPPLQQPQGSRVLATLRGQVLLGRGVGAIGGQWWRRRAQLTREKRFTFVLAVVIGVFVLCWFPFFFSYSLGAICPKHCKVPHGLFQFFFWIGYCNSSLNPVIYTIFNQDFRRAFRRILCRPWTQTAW
reported metric: Ki (µM)
Numeric only. Scale: µM

Enquiry: Item under review: CN1CCc2c(c3cccc4c3n2CCc2ccccc2-4)C1 . Reported Ki?
Return: 4.35

---

pKi: −log10 of the molar value.
Below are pKi values measured for D(3) dopamine receptor (Homo sapiens, UniProt P35462).

| smiles data | test value |
| --- | --- |
| CN1CCc2c(c3cccc4c3n2CCc2ccccc2-4)C1 | < 5.00 |

Enquiry: Quick check: pKi on D(3) dopamine receptor (Homo sapiens, UniProt P35462), item CN1CCc2c(c3cccc4c3n2-c2ccccc2CC4)C1 ?
Return: < 5.00

---

system under test: D(1A) dopamine receptor (Homo sapiens)
Sequence (P21728 whole entry): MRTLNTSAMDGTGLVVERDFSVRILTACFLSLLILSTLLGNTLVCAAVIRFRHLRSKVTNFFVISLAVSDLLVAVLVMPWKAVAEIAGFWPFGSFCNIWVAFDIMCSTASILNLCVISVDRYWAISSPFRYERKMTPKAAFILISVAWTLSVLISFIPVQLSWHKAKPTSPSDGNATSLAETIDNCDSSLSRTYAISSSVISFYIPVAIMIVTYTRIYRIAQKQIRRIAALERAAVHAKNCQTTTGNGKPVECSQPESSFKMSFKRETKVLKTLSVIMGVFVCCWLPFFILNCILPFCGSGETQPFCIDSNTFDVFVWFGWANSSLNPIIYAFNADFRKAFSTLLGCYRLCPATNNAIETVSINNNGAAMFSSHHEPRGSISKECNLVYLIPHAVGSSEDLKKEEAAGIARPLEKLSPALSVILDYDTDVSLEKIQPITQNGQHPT
assay protocol: Binding affinity to dopamine D1 receptor (unknown origin) by radioligand displacement assay
Here the recorded Ki is given for each entry.

| smiles data | Ki |
| --- | --- |
| CN1CCc2c(c3cccc4c3n2Cc2ccccc2C4)C1 | > 10 µM |
| CN1CCc2c(c3cccc4c3n2CCc2ccccc2-4)C1 | > 10 µM |

Enquiry: Item under review: CN1CCc2c(c3cccc4c3n2-c2ccccc2CC4)C1 . Reported Ki?
Return: > 10 µM
